Each entry below carries its recorded pEC50.
Biological target: P2X purinoceptor 4 (Rattus norvegicus)
Sequence (P51577 whole entry): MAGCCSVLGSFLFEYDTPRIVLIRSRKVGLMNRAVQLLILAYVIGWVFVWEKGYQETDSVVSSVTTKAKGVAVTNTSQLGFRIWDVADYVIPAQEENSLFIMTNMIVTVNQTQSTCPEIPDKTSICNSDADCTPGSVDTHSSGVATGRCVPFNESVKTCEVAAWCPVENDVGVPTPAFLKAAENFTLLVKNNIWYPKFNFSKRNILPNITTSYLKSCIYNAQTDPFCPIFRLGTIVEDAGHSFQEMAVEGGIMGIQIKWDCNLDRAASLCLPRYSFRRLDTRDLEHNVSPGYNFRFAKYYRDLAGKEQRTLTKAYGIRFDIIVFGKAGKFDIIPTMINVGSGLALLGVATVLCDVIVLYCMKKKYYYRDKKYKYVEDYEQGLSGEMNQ
Assay: Antagonist activity against recombinant rat P2X purinoceptor 4 (P2X4) at 3 uM, expressed in Xenopus oocytes
Format: functional, cell-based, Oocyte
pEC50: −log10 of the molar value.

CNc1ncnc2c1ncn2[C@H]1C[C@H](OP(=O)(O)O)[C@@H](COP(=O)(O)O)O1 :: < 5.00
Cc1nc(/N=N/c2ccc(S(=O)(=O)O)cc2S(=O)(=O)O)c(COP(=O)(O)O)c(C=O)c1O :: < 5.00

Lookup: Would you kindly share the measured pEC50 for Cc1ccc(C(=O)Nc2ccc(S(=O)(=O)O)c3cc(S(=O)(=O)O)cc(S(=O)(=O)O)c23)cc1NC(=O)c1cccc(NC(=O)Nc2cccc(C(=O)Nc3cc(C(=O)Nc4ccc(S(=O)(=O)O)c5cc(S(=O)(=O)O)cc(S(=O)(=O)O)c45)ccc3C)c2)c1 [SURAMIN] ?
Found: < 4.00
